Data provenance: PubChem BioAssay AID342

tested on: Swiss mice, Sarcoma 180 sc, mean tumor weight T/C; assay: NCI In Vivo Anticancer Drug Screen. Data for tumor model Sarcoma 180 (subcutaneous) in Swiss mice; details: endpoint: mean tumor weight; dose: 19.0 mg/kg/injection; schedule: Q01DX007 (ip); vehicle: carboxymethylcellulose (CMC); higher = larger tumour

[
  {
    "COMPOUND": "CCCCCCCCCCCCCCCCC(C(=O)O)C(O)(CC(=O)O)C(=O)O (stereo not given)",
    "SYSTEM_TESTED": "Swiss mice, Sarcoma 180 sc, mean tumor weight T/C",
    "T/C": "81 % of control"
  },
  {
    "COMPOUND": "O=c1[nH]c2cc(Cl)c(Cl)cc2o1",
    "SYSTEM_TESTED": "Swiss mice, Sarcoma 180 sc, mean tumor weight T/C",
    "T/C": "83 % of control"
  },
  {
    "COMPOUND": "S=c1nc[nH]c2nc[nH]c12",
    "SYSTEM_TESTED": "Swiss mice, Sarcoma 180 sc, mean tumor weight T/C",
    "T/C": "72 % of control"
  },
  {
    "COMPOUND": "NNC(=O)NC(=O)NN",
    "SYSTEM_TESTED": "Swiss mice, Sarcoma 180 sc, mean tumor weight T/C",
    "T/C": "124 % of control"
  },
  {
    "COMPOUND": "[Cl][Pt+2]([Cl])([Cl])[Cl].[Na+].[S-]c1ncnc2nc[nH]c12.[S-]c1ncnc2nc[nH]c12",
    "SYSTEM_TESTED": "Swiss mice, Sarcoma 180 sc, mean tumor weight T/C",
    "T/C": "74 % of control"
  }
]

----------
Catalogue of T/C values
tested on: Swiss mice, Sarcoma 180 sc, mean tumor weight T/C; experiment: NCI In Vivo Anticancer Drug Screen. Data for tumor model Sarcoma 180 (subcutaneous) in Swiss mice; details: endpoint: mean tumor weight; dose: 25.0 mg/kg/injection; schedule: Q#A X014 (sc); vehicle: steriod suspending solution; higher = larger tumour
READOUT_KIND: T/C

[
  {
    "CHEMICAL_STRING": "CC(=O)OCC(=O)[C@@]1(O)CC[C@H]2[C@@H]3C[C@H](C)C4=CC(=O)CC[C@]4(C)[C@H]3[C@@H](O)C[C@@]21C",
    "VALUE": "43 % of control"
  },
  {
    "CHEMICAL_STRING": "C[C@]12CC[C@H](O)CC1=CC[C@@H]1[C@@H]2[C@@H](O)C[C@@]2(C)[C@H]1CC[C@]2(C)O",
    "VALUE": "87 % of control"
  },
  {
    "CHEMICAL_STRING": "C[C@H]1C[C@@H]2[C@H]([C@@H](O)C[C@@]3(C)[C@H]2CC[C@]3(O)C(=O)CO)[C@@]2(C)C=CC(=O)C=C12",
    "VALUE": "33 % of control"
  },
  {
    "CHEMICAL_STRING": "C[C@]12CCC(=O)C=C1CC[C@@H]1[C@@H]2[C@@H](O)C[C@@]2(C)[C@H]1CC[C@]2(O)C(=O)COC(=O)c1ccc([N+](=O)[O-])cc1Cl",
    "VALUE": "67 % of control"
  },
  {
    "CHEMICAL_STRING": "C[C@]12CCC(=O)C=C1CC[C@@H]1[C@@H]2[C@@H](O)C[C@@]2(C)[C@H]1CC[C@]2(O)C(=O)CF",
    "VALUE": "55 % of control"
  }
]

----------
test system: Swiss mice, Sarcoma 180 sc, mean tumor weight T/C; experiment: NCI In Vivo Anticancer Drug Screen. Data for tumor model Sarcoma 180 (subcutaneous) in Swiss mice; conditions: endpoint: mean tumor weight; dose: 20.0 mg/kg/injection; schedule: Q01DX007 (ip); vehicle: saline; higher = larger tumour
READOUT_KIND: T/C

[
  {
    "MOLECULE": "CC1OC(OC2C(CO)OC(O[C@H]3CC[C@@]4(C)C(=CC[C@H]5[C@@H]6C[C@@H]7O[C@@]8(CC[C@H](C)CN8)[C@@H](C)[C@@H]7[C@@]6(C)CC[C@@H]54)C3)C(OC3OC(C)C(O)C(O)C3O)C2O)C(O)C(O)C1O (some centres not stated)",
    "VALUE": "15 % of control"
  },
  {
    "MOLECULE": "CSc1ncnc2c1ncn2C1OC(CO)C(O)C1O (configuration not stated)",
    "VALUE": "73 % of control"
  },
  {
    "MOLECULE": "O=c1[nH]c(=O)n(C2CC(O)C(CO)O2)cc1F (configuration not stated)",
    "VALUE": "119 % of control"
  },
  {
    "MOLECULE": "CCOC(=O)CCCc1ccc(N=NN(C)C)cc1",
    "VALUE": "99 % of control"
  },
  {
    "MOLECULE": "O=NN(CCCl)C(=O)NCCCl",
    "VALUE": "24 % of control"
  },
  {
    "MOLECULE": "CS(=O)(=O)OCC#CCOS(C)(=O)=O",
    "VALUE": "84 % of control"
  },
  {
    "MOLECULE": "NC(=O)Nc1n[se]nc1C(=O)O",
    "VALUE": "111 % of control"
  }
]

----------
Tested on: Swiss mice, Sarcoma 180 sc, mean tumor weight T/C
Assay: NCI In Vivo Anticancer Drug Screen. Data for tumor model Sarcoma 180 (subcutaneous) in Swiss mice
Settings: endpoint: mean tumor weight; dose: 750.0 mg/kg/injection; schedule: Q01DX007 (ip); vehicle: carboxymethylcellulose (CMC); higher = larger tumour
Experimental: The antitumor activity of compounds was measured in mice bearing transplantable tumors. Survival or tumor size were measured and the results are expressed as the measurement made in the treated group (T) divided by the measurement made in the vehicle treated control group (C). The tumor model used in this assay is Sarcoma 180 (subcutaneous) in Swiss mice
Catalogue of T/C values

[
  {
    "MOLECULE": "CC=C(/C(=C/C)c1ccc(O)cc1)c1ccc(O)cc1",
    "T/C": "35 % of control"
  },
  {
    "MOLECULE": "O=C(NNC(=O)c1cccc2ccccc12)c1cc(Br)ccc1Br",
    "T/C": "37 % of control"
  },
  {
    "MOLECULE": "OCC1OC(n2cnc3c(Cl)ncnc32)C(O)C1O (stereo not drawn)",
    "T/C": "36 % of control"
  }
]

----------
test system: Swiss mice, Sarcoma 180 sc, mean tumor weight T/C; test: NCI In Vivo Anticancer Drug Screen. Data for tumor model Sarcoma 180 (subcutaneous) in Swiss mice; conditions: endpoint: mean tumor weight; dose: 250.0 mg/kg/injection; schedule: Q01DX007 (ip); vehicle: saline; higher = larger tumour
Catalogue of T/C values

[
  {
    "COMPOUND": "COc1cc(C(=O)CC2CCCCN2)ccc1O (stereo not drawn)",
    "SYSTEM_TESTED": "Swiss mice, Sarcoma 180 sc, mean tumor weight T/C",
    "T/C": "83 % of control"
  },
  {
    "COMPOUND": "CN1CCC23c4c5ccc(O)c4OC2C(O)C=CC3C1C5 (stereo not drawn)",
    "SYSTEM_TESTED": "Swiss mice, Sarcoma 180 sc, mean tumor weight T/C",
    "T/C": "48 % of control"
  },
  {
    "COMPOUND": "O=C(O)Cc1c[nH]c2ccccc12",
    "SYSTEM_TESTED": "Swiss mice, Sarcoma 180 sc, mean tumor weight T/C",
    "T/C": "95 % of control"
  },
  {
    "COMPOUND": "OCCOCC(F)(F)F",
    "SYSTEM_TESTED": "Swiss mice, Sarcoma 180 sc, mean tumor weight T/C",
    "T/C": "101 % of control"
  },
  {
    "COMPOUND": "Cc1ncc([N+](=O)[O-])n1CCCl",
    "SYSTEM_TESTED": "Swiss mice, Sarcoma 180 sc, mean tumor weight T/C",
    "T/C": "78 % of control"
  },
  {
    "COMPOUND": "O=[N+]([O-])c1ccc(C=Nc2ccc3c(c2)C(Br)c2ccccc2-3)cc1 (stereo not drawn)",
    "SYSTEM_TESTED": "Swiss mice, Sarcoma 180 sc, mean tumor weight T/C",
    "T/C": "94 % of control"
  },
  {
    "COMPOUND": "c1ccc2nc3ccccc3c-2cc1",
    "SYSTEM_TESTED": "Swiss mice, Sarcoma 180 sc, mean tumor weight T/C",
    "T/C": "113 % of control"
  },
  {
    "COMPOUND": "OCC(F)(F)C(F)(F)C(F)(F)F",
    "SYSTEM_TESTED": "Swiss mice, Sarcoma 180 sc, mean tumor weight T/C",
    "T/C": "74 % of control"
  }
]
